# target or system: T1, TetRc-6His (UniProt P03039 P03039:1-219)
# T1 chain: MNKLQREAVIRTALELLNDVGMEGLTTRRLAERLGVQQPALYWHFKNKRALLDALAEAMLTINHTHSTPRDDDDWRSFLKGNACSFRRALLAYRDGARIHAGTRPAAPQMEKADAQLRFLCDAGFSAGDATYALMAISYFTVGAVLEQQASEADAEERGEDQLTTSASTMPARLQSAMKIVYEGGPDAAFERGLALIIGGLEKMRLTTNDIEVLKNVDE
# assay method text: FRET; aTc concentration for half-maximal DNA release; 5 mM MgCl2
# recorded conditions: tags: His6, on quantum dot QD1; chain copies: 2; label: Cy5 at 5' and 3' of reverse strand
measured metric: EC50
Answer format: number, then unit.

So what does the record say about EC50 for TetO 28 bp (dsDNA) DNA 1: GTCATCCCTATCATTGATAGAGATACTG DNA 2: CAGTATCTCTATCAATGATAGGGATGAC ?
699 nM
